test system: Protease (Human immunodeficiency virus 1)
Sequence (Q9YQ12 whole entry): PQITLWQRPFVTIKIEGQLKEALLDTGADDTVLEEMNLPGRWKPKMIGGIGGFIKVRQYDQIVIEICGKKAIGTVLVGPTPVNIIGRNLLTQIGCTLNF
measurement protocol: Inhibition of wild type HIV1 HXB2 protease
Non-standard residues stand in square brackets, D forms with d. Residues, ends and D or L forms follow the SMILES beside them. Groups on a side chain read outwards from the residue. ξ: configuration not given here. *: point of attachment. Phe(4-Cl) = N[C@@H](Cc1ccc(Cl)cc1)C(=O)O; Phe(4-NH2) = Nc1ccc(C[C@H](N)C(=O)O)cc1; 2Nal = N[C@@H](Cc1ccc2ccccc2c1)C(=O)O; hArg = N=C(N)NCCCC[C@H](N)C(=O)O; hPhe = N[C@@H](CCc1ccccc1)C(=O)O; Cha = N[C@@H](CC1CCCCC1)C(=O)O; Phg = N[C@H](C(=O)O)c1ccccc1; Nle = CCCC[C@H](N)C(=O)O; Nva = CCC[C@H](N)C(=O)O; Dap = NC[C@H](N)C(=O)O; ξDab = NCCC(N)C(=O)O; ξDap = NCC(N)C(=O)O; Bn = c1ccc(C*)cc1
measured property: Ki (µM)
Reply with just the number (in µM).

// Input: CSCC[C@H](NC(=O)[C@H](CC1CCCCC1)NC(=O)[C@@H](N)Cc1ccc2ccccc2c1)C(=O)N[C@@H](CCC(=O)O)C(=O)N[C@H](C(=O)N[C@@H](CC1CCCCC1)C(=O)O)c1ccccc1 (H-[2Nal][Cha]ME[Phg][Cha]-OH) . Output its Ki only. 5.5

// Input: CCC[C@H](NC(=O)[C@H](Cc1ccc(O)cc1)NC(=O)[C@H](CCCCNC(=N)N)NC(=O)[C@H](CCSC)NC(=O)[C@@H](NC(=O)[C@@H](N)Cc1ccc2ccccc2c1)C(C)C)C(=O)O (H-[2Nal]VM[hArg]Y[Nva]-OH) . Output its Ki only. 5.4

// Input: CCCC[C@H](NC(=O)[C@H](Cc1ccc(OCc2ccccc2)cc1)NC(=O)[C@H](Cc1ccc(N)cc1)NC(=O)[C@H](CCCCN)NC(=O)[C@H](CC1CCCCC1)NC(=O)[C@@H](N)Cc1ccc2ccccc2c1)C(=O)O (H-[2Nal][Cha]K[Phe(4-NH2)]Y(Bn)[Nle]-OH) . Output its Ki only. 24.1

// Input: CCC[C@H](NC(=O)[C@H](Cc1ccc2ccccc2c1)NC(=O)[C@H](CCCCNC(=N)N)NC(=O)[C@@H](N)CNC(=O)[C@H](CCC)NC(=O)[C@@H](N)CCc1ccccc1)C(=O)O (H-[Dap]([Nva-hPhe])[hArg][2Nal][Nva]-OH) . Output its Ki only. 5.2

// Input: NC(CCNC(=O)[C@H](CC1CCCCC1)NC(=O)[C@@H](N)Cc1ccc(Cl)cc1)C(=O)N[C@@H](CCC(=O)O)C(=O)N[C@@H](Cc1ccccc1)C(=O)N[C@@H](CC1CCCCC1)C(=O)O (stereo partly specified) (H-[ξDab]([Cha-Phe(4-Cl)])EF[Cha]-OH) . Output its Ki only. 3.8

// Input: CCC[C@H](NC(=O)[C@H](Cc1ccc2ccccc2c1)NC(=O)[C@H](CCC(=O)O)NC(=O)C(N)CNC(=O)[C@H](CC1CCCCC1)NC(=O)[C@@H](N)Cc1ccc2ccccc2c1)C(=O)O (stereo partly specified) (H-[ξDap]([Cha-2Nal])E[2Nal][Nva]-OH) . Output its Ki only. 12
